measurement-target: T1, human TMEM106B (human, UniProt Q9NUM4 2-274)
T1 construct: full-length, transiently expressed on HEK293 cells, or natively expressed on HeLa, U251 and A549 cells (the cell is named under assay); also the source of the Pepscan peptides; also called huTMEM106B; huTMEM
test-protocol: FACS HEK+huTMEM 0.1 ug/ml;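 note: flow cytometry binding of purified mouse IgG antibodies to HEK293 cells transiently expressing TMEM106B, read as median fluorescence intensity on live cells (propidium iodide negative gating)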
measured-parameter: MFI (MFI)

* TM-15 (antibody, V domains shown, mouse IgG (hybridoma)) VH: QVQLQQPGAEFVRPGASVKLSCKASGYTFTNYWITWVKQRPGHGLEWIGDIYPGSGNSNYNESFKRKATLTVDTSSSTAYMHLSSQTSEDSAVYFCARKAYGGFPYWGQGTLVTVSA VL: DIQMTQSPASLSVSVGETVTITCRVSENIYNNLAWYQQKQEKSPQLLVFAATNLADGVPSRFSGSGSGTQFSLKINSLQSEDFGTYYCQHFWDTPFTFGSGTKLEIK | 2060
* TM-1 (antibody, V domains shown) VH: QVQLQQSGAELVRPGTSVKVSCKASGYAFTNYLIEWVKQRPGQGLEWIGVINPGSGGTKYNEKLKGKATLTADKSSSTAYMQLSSLTSVDSAVYFCARRGYTIYDFYAMDYWGQGTSVTVSS VL: DVLMTQTPLSLPVSLGDHASISCRSSQSIVYNNGNTYLEWYLQKPGQSPKLLIYKVSNRFSGVPDRFSGSGSGTDFTLKISRVEAEDLGVYYCFQVSHVPFTFGSGTKLEIK | 1330
* TM-33 (antibody, V domains shown, mouse IgG (hybridoma)) VH: EFQLQQSGPELVKPGASVKISCKASGYSFTDYNMNWVKQSNGKSLEWIGVINPNYGTTSYNQKFKGKATLTVDQSSSTAYMQLNSLTSEDSAVYYCASSYWGQGTLVTVSA VL: DIVMTQSQKFMSTTVGDRVSITCKASQNVGTAVAWYQQKPGQSPKLLIYSASNRYTGVPDRFTGSGSGTDFTLTISNMQSEDLADYFCQQYSSYPYTFGGGTKLEIK | 1750
* TM-24 (antibody, V domains shown, mouse IgG (hybridoma)) VH: QVQLKQSGPGQVQPSQSLSITCTVSGFSLSDYGVHWVRQSPGKGLEWLGVIWNNGNTDYNAAFISRLSINKDNSKSQVFFKMTSLQADDTAIYYCVRSLRPLHFDYWGQGTTVTVSS VL: DIVMTQSPSSLTMSVGQKVTMNCKSSQSLLNSNNQQNYLAWYQQKPGQSPKLLVYFASIRESGVPDRFIGSGSGTDFTLTINSVQAEDLADYFCQQHYSTPFTFGSGTKLEIR | 22000
* TM-9 (antibody, V domains shown) VH: EVQLVESGGDLVKPGGSLKLSCVASGFTFSGYGMSWVRQTPDKRLEWVATISSGSFYIYYPDSVKGRLTVSRDNAKNTLYLQMSSLKSEDTAIYYCARQNFYYGCEDYWGQGTTLTVSS VL: DIVMTQAAFSNPVTLGTSASISCRSSKSLLHSNGITYLYWYLQKPGQSPQLLIYQMSNLASGVPNRFSSSGSGTDFTLRISRVEAEDVGVYYCAQNLELPWTFGGGTKLEIK | 28300
* TM-21 (antibody, V domains shown) VH: EVQLVESGGGLVKPGGSLKLSCAASGFTFSNYAMSWVRETPEKRLEWVAFISDGGGYIYYADNVKDRFTISRDNAKNNLYLQMRHLKSEDTAMYYCARDGGTGFTYWGQGTLVTVSV VL: DIVMTQAAFSNPVTLGTSASISCRSSKSLLHSNGITYLFWYLQKPGQSPQLLIYQMSNLASGVPDRFSSSGSGTDFTLRISRVEAEDVGVYYCVQNLELPYTFGGGTKLEIK | 15600
* TM-18 (antibody, V domains shown) VH: EVRLQQSGPELVKPGASVKISCKTSGYTFTDYYMNWVKQSHGKSLEWIVNINPNNGDAFYNQKFKGKATLTVDKSSNTAYLDLRSLTSEDSAVYYCAREGQLRLRRVYAMDYWGQGTSVTVSS VL: DIVLAQSPASLAVSLGQRATISCRASKSVSISVYTYVHWYQQKPGQPPKLLIYLASNLESGVPARFSGSGSGTDFTLNIHPVEEEDAATYYCQHSRELPYTFGGGTKLEIK | 10600
* TM-8 (antibody, V domains shown, mouse IgG (hybridoma)) VH: QIQLVQSGPELKKPGETVKISCKASGYTFTDYPMHWVKQAPGKGFKWMGVIYTDTGEPKYAEVFKGRFAFSLETSASTAYLQINNLKNEDTATYFCVRRLAYWGQGTLVTVSA VL: DIKMTQSPSSMYASLGERVTITCKASQDINSYLSWFQQKPGKSPKTLIFRANRLVDGVPSRFSGSGSGQDYSLTISSLEYEDMGIYYCLQYDEFPLTFGAGTKLEMK | 305
* TM-12 (antibody, V domains shown) VH: EVQLQQSGAELMRPGASVKLSCTASGFNIQDYYMYWVKQRPEQGLEWIGRIDPEDGDAEYAPKFQGKATMTADTSSNTAYLQLSSLTSEDTAVYYCSTRVIYDGYYRTMDCWGQGTSVTVSS VL: DVLMTQIPLSLPVSLGDQASISCRSSQTIVHSNGNTYLEWYLKKPGQSPKLLIDKISNRFSGVPDRFSGSGSGTDFTLKISRVEAEDLGVYYCFQGSHVPYTFGGGTKLEIK | 19700
* TM-29 (antibody, V domains shown) VH: QVQLRQSGAELVRPGASVKLSCKASGYTFTDYYINWVKQRPGQGLEWIARIYPGSGYTYYNEKFKGKATLTAEGSSNTAYMQLSSLTSEDSAVYFCANHYTNPFAYWGQGTLVTVSA VL: DIVMTQAAFSNPVTLGTSASISCRSSKSLLHYNGITYLYWYLQKPGQSPQLLIYQMSNLASGVPDRFSSSGSGTDFTLRISRVEAEDVGVYYCAQNLELPYTFGGGTKLEIK | 24400

Hey, just so you know, these numbers are from patent US20200339680A1.
